Catalogue of relative viability readings, one per entry.
Test system: NCI-H2126
Assay: relative viability (nuclei count vs DMSO), 5 days (fraction); higher = more cells survive
Details: first compound 0.8 µM

Input line: Output relative viability of Nc1cccc2c1CN(C1CCC(=O)NC1=O)C2=O (centres undefined) [Lenalidomide] + CC1(C)CCC(c2ccc(Cl)cc2)=C(CN2CCN(c3ccc(C(=O)NS(=O)(=O)c4ccc(N[C@H](CCN5CCOCC5)CSc5ccccc5)c(S(=O)(=O)C(F)(F)F)c4)cc3)CC2)C1 [Navitoclax] (partner 0.5 µM)
Output line: 0.907

Input line: Output relative viability of Nc1cccc2c1CN(C1CCC(=O)NC1=O)C2=O (centres undefined) [Lenalidomide] + C[C@]1(O)C[C@@H](c2nc(-c3ccc4ccc(-c5ccccc5)nc4c3)c3c(N)nccn32)C1 [Linsitinib] (partner 1 µM)
Output line: 0.681

Input line: Output relative viability of Nc1cccc2c1CN(C1CCC(=O)NC1=O)C2=O (centres undefined) [Lenalidomide] + CC(C)C[C@H](NC(=O)[C@H](Cc1ccccc1)NC(=O)c1cnccn1)B(O)O [Bortezomib] (partner 0.002 µM)
Output line: 0.971

Input line: Output relative viability of Nc1cccc2c1CN(C1CCC(=O)NC1=O)C2=O (centres undefined) [Lenalidomide] + CS(=O)(=O)CCNCc1ccc(-c2ccc3ncnc(Nc4ccc(OCc5cccc(F)c5)c(Cl)c4)c3c2)o1 [Lapatinib] (partner 2 µM)
Output line: 0.537

* * *

Catalogue of relative viability readings, one per entry.
System: NCI-H1915
Experiment: relative viability (nuclei count vs DMSO), 5 days (fraction); higher = more cells survive
Settings: first compound 0.6325 µM
// response body must contain only the number

Here are 4 compounds together with their reported answers.
Compound	Metric	Recorded number
CN1CCN(CCOc2cc(OC3CCOCC3)c3c(Nc4c(Cl)ccc5c4OCO5)ncnc3c2)CC1 [Saracatinib] + N=C(N)NC(=N)NCCc1ccccc1 [Phenformin] (partner 250 µM)	relative viability	0.364
CN1CCN(CCOc2cc(OC3CCOCC3)c3c(Nc4c(Cl)ccc5c4OCO5)ncnc3c2)CC1 [Saracatinib] + CC(=O)c1c(C)c2cnc(Nc3ccc(N4CCNCC4)cn3)nc2n(C2CCCC2)c1=O [Palbociclib] (partner 0.5 µM)	relative viability	0.537
Cc1csc(=NC2CCCCC2)n1/N=C/c1ccc(O)c(O)c1O [MIM1] + C[C@]1(O)C[C@@H](c2nc(-c3ccc4ccc(-c5ccccc5)nc4c3)c3c(N)nccn32)C1 [Linsitinib] (partner 1 µM)	relative viability	1.03
Cc1csc(=NC2CCCCC2)n1/N=C/c1ccc(O)c(O)c1O [MIM1] + CC(=O)c1c(C)c2cnc(Nc3ccc(N4CCNCC4)cn3)nc2n(C2CCCC2)c1=O [Palbociclib] (partner 0.5 µM)	relative viability	0.529

Input line: Output relative viability of CN1CCN(CCOc2cc(OC3CCOCC3)c3c(Nc4c(Cl)ccc5c4OCO5)ncnc3c2)CC1 [Saracatinib] + COc1cccc2cc(-c3nc([C@H]4CC[C@H](C(=O)O)CC4)n4ncnc(N)c34)[nH]c12 [OSI-027] (partner 0.5 µM)
Output line: 0.587

* * *

Tested on: HCC-15
Experiment: relative viability (nuclei count vs DMSO), 5 days (fraction); higher = more cells survive
Settings: first compound 0.2 µM
Catalogue of relative viability readings, one per entry.
// response body must contain only the number

Input line: Output relative viability of CN1CCN(CCOc2cc(OC3CCOCC3)c3c(Nc4c(Cl)ccc5c4OCO5)ncnc3c2)CC1 [Saracatinib] + C[C@]1(O)C[C@@H](c2nc(-c3ccc4ccc(-c5ccccc5)nc4c3)c3c(N)nccn32)C1 [Linsitinib] (partner 1 µM)
Output line: 0.84

* * *

Test system: NCI-H2405
Test: relative viability (nuclei count vs DMSO), 5 days (fraction); higher = more cells survive
Conditions: first compound 2 µM
Catalogue of relative viability readings, one per entry.
// response body must contain only the number

Compound	Recorded number
CN1CCN(CCOc2cc(OC3CCOCC3)c3c(Nc4c(Cl)ccc5c4OCO5)ncnc3c2)CC1 [Saracatinib] + COc1cc2c(Oc3ccc(NC(=O)C4(C(=O)Nc5ccc(F)cc5)CC4)cc3F)ccnc2cc1OCCCN1CCOCC1 [Foretinib] (partner 0.25 µM)	0.658
CN1CCN(CCOc2cc(OC3CCOCC3)c3c(Nc4c(Cl)ccc5c4OCO5)ncnc3c2)CC1 [Saracatinib] + CC(C)C[C@H](NC(=O)[C@H](Cc1ccccc1)NC(=O)c1cnccn1)B(O)O [Bortezomib] (partner 0.002 µM)	0.716
Cc1csc(=NC2CCCCC2)n1/N=C/c1ccc(O)c(O)c1O [MIM1] + CC1(C)CCC(c2ccc(Cl)cc2)=C(CN2CCN(c3ccc(C(=O)NS(=O)(=O)c4ccc(N[C@H](CCN5CCOCC5)CSc5ccccc5)c(S(=O)(=O)C(F)(F)F)c4)cc3)CC2)C1 [Navitoclax] (partner 0.5 µM)	0.884

Could you now consider this next compound?
Input line: Output relative viability of CN1CCN(CCOc2cc(OC3CCOCC3)c3c(Nc4c(Cl)ccc5c4OCO5)ncnc3c2)CC1 [Saracatinib] + CS(=O)(=O)CCNCc1ccc(-c2ccc3ncnc(Nc4ccc(OCc5cccc(F)c5)c(Cl)c4)c3c2)o1 [Lapatinib] (partner 2 µM)
Output line: 0.511

* * *

Catalogue of relative viability readings, one per entry.
Tested on: RERF-LC-KJ
Experiment: relative viability (nuclei count vs DMSO), 5 days (fraction); higher = more cells survive
Conditions: first compound 6.325 µM
// response body must contain only the number

Here are 3 molecules together with their reported answers.
Molecule	System tested	relative viability
Cc1csc(=NC2CCCCC2)n1/N=C/c1ccc(O)c(O)c1O [MIM1] + Cc1cc(Nc2cc(N3CCN(C)CC3)nc(Sc3ccc(NC(=O)C4CC4)cc3)n2)n[nH]1 [Tozasertib] (partner 0.1 µM)	RERF-LC-KJ	0.231
Cc1csc(=NC2CCCCC2)n1/N=C/c1ccc(O)c(O)c1O [MIM1] + O=C(c1cc(Cc2n[nH]c(=O)c3ccccc23)ccc1F)N1CCN(C(=O)C2CC2)CC1 [Olaparib] (partner 8 µM)	RERF-LC-KJ	0.221
Cc1csc(=NC2CCCCC2)n1/N=C/c1ccc(O)c(O)c1O [MIM1] + C[C@]1(O)C[C@@H](c2nc(-c3ccc4ccc(-c5ccccc5)nc4c3)c3c(N)nccn32)C1 [Linsitinib] (partner 1 µM)	RERF-LC-KJ	0.473

Input line: # assay system RERF-LC-KJ: give relative viability of Cc1csc(=NC2CCCCC2)n1/N=C/c1ccc(O)c(O)c1O [MIM1] + CC(C)C[C@H](NC(=O)[C@H](Cc1ccccc1)NC(=O)c1cnccn1)B(O)O [Bortezomib] (partner 0.002 µM)
Output line: 0.601

* * *

Test system: PC-3 [JPC-3]
Assay: relative viability (nuclei count vs DMSO), 5 days (fraction); higher = more cells survive
Settings: first compound 0.1 µM
Metric: relative viability
// response body must contain only the number

Compound	Metric	Recorded number
Cc1cn(-c2cc(NC(=O)c3ccc(C)c(Nc4nccc(-c5cccnc5)n4)c3)cc(C(F)(F)F)c2)cn1 [Nilotinib] + CCNC(=O)c1noc(-c2cc(C(C)C)c(O)cc2O)c1-c1ccc(CN2CCOCC2)cc1 [Luminespib] (partner 0.01 µM)	relative viability	0.526

Could you now consider this next compound?
Input line: Output relative viability of Cc1cn(-c2cc(NC(=O)c3ccc(C)c(Nc4nccc(-c5cccnc5)n4)c3)cc(C(F)(F)F)c2)cn1 [Nilotinib] + COc1cccc2cc(-c3nc([C@H]4CC[C@H](C(=O)O)CC4)n4ncnc(N)c34)[nH]c12 [OSI-027] (partner 0.5 µM)
Output line: 0.475

* * *

Tested on: HCC-78
Assay: relative viability (nuclei count vs DMSO), 5 days (fraction); higher = more cells survive
Details: first compound 0.2 µM
Field 'label' (enum: Met / Not met). Set to Met when relative viability is strictly under 0.5; else Not met.

These solved cases illustrate the format of a correct answer.
Molecule	Group
CCNC(=O)c1noc(-c2cc(C(C)C)c(O)cc2O)c1-c1ccc(CN2CCOCC2)cc1 [Luminespib] + NC(=O)Nc1cc(-c2cccc(F)c2)sc1C(=O)N[C@H]1CCCNC1 [AZD7762] (partner 0.2 µM)	Met
CN1CCN(CCOc2cc(OC3CCOCC3)c3c(Nc4c(Cl)ccc5c4OCO5)ncnc3c2)CC1 [Saracatinib] + C[C@@H](Oc1cc(-c2cnn(C3CCNCC3)c2)cnc1N)c1c(Cl)ccc(F)c1Cl [Crizotinib] (partner 1 µM)	Met
CCNC(=O)c1noc(-c2cc(C(C)C)c(O)cc2O)c1-c1ccc(CN2CCOCC2)cc1 [Luminespib] + CS(=O)(=O)CCNCc1ccc(-c2ccc3ncnc(Nc4ccc(OCc5cccc(F)c5)c(Cl)c4)c3c2)o1 [Lapatinib] (partner 2 µM)	Not met

Please look at the following molecule next.
Input line: relative viability under 0.5? Item: Cc1csc(=NC2CCCCC2)n1/N=C/c1ccc(O)c(O)c1O [MIM1] + Nc1ncn([C@H]2C[C@H](O)[C@@H](CO)O2)c(=O)n1 [Decitabine] (partner 2 µM)
Output line: Not met
